test system: S. aureus DSM 20231; assay: Bliss interaction score (quartile over a dose matrix) (fitness difference); higher = more antagonism (negative = synergy);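 note: first quartile when negative (synergy) and third quartile when positive (antagonism)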
# label = TRUE if Bliss interaction score >= -0.05 else FALSE

As a guide, the following entries are already answered.
{"MOLECULE": "N[C@@H]1CONC1=O [CycloserineD] + CN[C@@H]1[C@H](O)[C@H](NC)[C@H]2O[C@@]3(O)C(=O)C[C@@H](C)O[C@H]3O[C@@H]2[C@H]1O [Spectinomycin]", "GROUP_LABEL": "TRUE"}
{"MOLECULE": "CC[C@H]1OC(=O)[C@H](C)[C@@H](O[C@H]2C[C@@](C)(OC)[C@@H](O)[C@H](C)O2)[C@H](C)[C@@H](O[C@@H]2O[C@H](C)C[C@H](N(C)C)[C@H]2O)[C@](C)(OC)C[C@@H](C)C(=O)[C@H](C)[C@@H](O)[C@]1(C)O [Clarithromycin] + CO[C@@H]1[C@@H](OC(N)=O)[C@@H](O)[C@H](Oc2ccc3c(O)c(NC(=O)c4ccc(O)c(CC=C(C)C)c4)c(=O)oc3c2C)OC1(C)C [Novobiocin]", "GROUP_LABEL": "FALSE"}
{"MOLECULE": "CCC[C@@H]1C[C@@H](C(=O)N[C@@H]([C@H]2O[C@H](SC)[C@H](O)[C@@H](O)[C@H]2O)[C@H](C)Cl)N(C)C1 [Clindamycin] + Clc1ccc(COC(Cn2ccnc2)c2ccc(Cl)cc2Cl)c(Cl)c1 [Miconazole]", "GROUP_LABEL": "TRUE"}
{"MOLECULE": "O=C(O[C@@H]1Cc2c(O)cc(O)cc2O[C@@H]1c1cc(O)c(O)c(O)c1)c1cc(O)c(O)c(O)c1 [EGCG] + CN1C2=CC=CC=C2N=C3C1=CC=CC3=O [Pyocyanin]", "GROUP_LABEL": "FALSE"}
{"MOLECULE": "O=C(O[C@@H]1Cc2c(O)cc(O)cc2O[C@@H]1c1cc(O)c(O)c(O)c1)c1cc(O)c(O)c(O)c1 [EGCG] + CN[C@@H]1[C@H](O[C@H]2[C@H](O[C@H]3[C@H](O)[C@@H](O)[C@H](N=C(N)N)[C@@H](O)[C@@H]3N=C(N)N)O[C@@H](C)[C@]2(O)C=O)O[C@@H](CO)[C@H](O)[C@H]1O [Streptomycin]", "GROUP_LABEL": "TRUE"}

Check this molecule for Bliss interaction score at or above -0.05: N[C@@H]1CONC1=O [CycloserineD] + C[C@@H]1O[C@@H]1P(=O)(O)O [Fosfomycin]
FALSE

Confirm if Bliss interaction score reported for the molecule O=C(O[C@@H]1Cc2c(O)cc(O)cc2O[C@@H]1c1cc(O)c(O)c(O)c1)c1cc(O)c(O)c(O)c1 [EGCG] + Oc1cc(Cl)ccc1Oc1ccc(Cl)cc1Cl [Triclosan] is -0.05 or above.
TRUE

Can C[C@@H](O)[C@H]1C(=O)N2C(C(=O)O)=C(SCCNC=N)C[C@H]12 [Imipenem] + CN(C)C(=O)C(CCN1CCC(O)(c2ccc(Cl)cc2)CC1)(c1ccccc1)c1ccccc1 [Loperamide] be said to have Bliss interaction score at or above -0.05?
TRUE

State whether the measured Bliss interaction score reaches -0.05, counting equality as reaching it, for O=C(O[C@@H]1Cc2c(O)cc(O)cc2O[C@@H]1c1cc(O)c(O)c(O)c1)c1cc(O)c(O)c(O)c1 [EGCG] + C[C@H]1COc2c(N3CCN(C)CC3)c(F)cc3c(=O)c(C(=O)O)cn1c23 [Levofloxacin]
FALSE

Bliss interaction score >= -0.05 for O=C(O[C@@H]1Cc2c(O)cc(O)cc2O[C@@H]1c1cc(O)c(O)c(O)c1)c1cc(O)c(O)c(O)c1 [EGCG] + CC(=O)O[C@H]1C[C@@]2(C)[C@@H](C[C@@H](O)[C@H]3[C@@]4(C)CC[C@@H](O)[C@@H](C)[C@@H]4CC[C@@]32C)/C1=C(\CCC=C(C)C)C(=O)O [Fusidic acid] ?
TRUE

Decide: Bliss interaction score of C[C@@H](O)[C@H]1C(=O)N2C(C(=O)O)=C(SCCNC=N)C[C@H]12 [Imipenem] + CO[C@H]1/C=C/O[C@@]2(C)Oc3c(C)c(O)c4c(O)c(c(/C=N/N5CCN(C)CC5)c(O)c4c3C2=O)NC(=O)/C(C)=C\C=C\[C@H](C)[C@H](O)[C@@H](C)[C@@H](O)[C@@H](C)[C@H](OC(C)=O)[C@@H]1C [Rifampicin] >= -0.05?
TRUE
